Measured values drawn from paper PMC6520686 for this set.

Tested on: CpsCA
Construct: purified recombinant gamma-class enzyme
Test: stopped-flow CO2 hydration assay
Type: biochemical, Colwellia psychrerythraea
Settings: activation constant (activator); CO2 substrate; TRIS pH 8.3, 0.1 M NaClO4, 25 °C; 15 min pre-incubation
recorded-endpoint: KA (μM) * / CpsCA ^b (µM)
Enter your answer as a number in µM; do not include the unit.

The examples below pair each entry with its known result.
NCc1ccccn1 [compound 15, 2-Pyridyl-methylamine]	21.5
N[C@H](CCC(=O)O)C(=O)O [compound 23, D-Glu]	12.0
NCCc1c[nH]cn1 [compound 12, Histamine]	20.6

// KA (μM) * / CpsCA ^b value for N[C@@H](Cc1c[nH]c2ccccc12)C(=O)O [compound 7, L-Trp] : 21.3

Short answer for Nc1ccc(C[C@H](N)C(=O)O)cc1 [compound 11, 4-H2N-L-Phe] : KA (μM) * / CpsCA ^b was 17.2

Reported KA (μM) * / CpsCA ^b ( N[C@@H](Cc1ccc(O)cc1)C(=O)O [compound 9, L-Tyr] ) = 19.5

The measured KA (μM) * / CpsCA ^b associated with N[C@H](Cc1ccc(O)cc1)C(=O)O [compound 10, D-Tyr] reads 18.4

response.value for N[C@H](Cc1ccccc1)C(=O)O [compound 4, D-Phe] (field: KA (μM) * / CpsCA ^b) = 15.4

Summary for this compound, N[C@@H](Cc1ccc(O)c(O)c1)C(=O)O [compound 5, L-DOPA] : KA (μM) * / CpsCA ^b is 4.79

The compound N[C@H](Cc1ccc(O)c(O)c1)C(=O)O [compound 6, D-DOPA] showed KA (μM) * / CpsCA ^b equal to 11.2
